System: OVCAR-8 ovarian
method-notes: NCI-60 one-dose screen, 48 h
recorded-conditions: 10 µM unless noted
About 83,000 compounds went through this panel and 20% of them were active in at least one assay; those are over-represented in the sample as a whole. The source made the active and inactive calls. How the source made its calls: active means growth percent below 10; inactive means the rest.
Assign a class; possible classes are Y = active, N = inactive

CC1(C)N(Nc2ccccc2)C(=O)C2CCCN21 (stereo not drawn)    N

Enquiry: What is the recorded call for this molecule in the test? "CO[C@H]1[C@H](O[C@@H]2C[C@@H]3C/C=C/C(=O)O[C@@H](CO)C[C@H](O)[C@@H]4C[C@H](C)[C@H](C/C=C\C=C\[C@H](C)C[C@H](C2)O3)O4)O[C@@H](C)[C@H](O)[C@H]1O"
Return: N

Enquiry: Can you look up the reported call for "O=C(NC(Cl)=C(Cl)Cl)P(=O)(c1ccccc1)c1ccccc1" for me?
Return: N

Enquiry: Test call for this molecule, please: C[N+]1(C)CCCC1c1cccnc1 (stereo not drawn)
Return: N

Enquiry: Recorded test call requested for NC1CN2CCC1CC2 (stereo not drawn)
Return: N

Enquiry: Record request — test call for "CC/C(Cc1ccccc1)=C(\c1ccc(OCCN2CCCC2)cc1)c1ccc(OC(=O)NCc2ccccc2)cc1"
Return: N

Enquiry: Give the logged outcome of this assay for the following molecule: "OCCNC1CCCCC1"
Return: N

Enquiry: Name the outcome recorded for "O=C/C=C/c1ccco1" in the assay.
Return: N

Enquiry: Short answer needed: outcome of this test for "Cn1cc(-c2csc(-c3cn(CCCCN4CCOCC4)c4ccc(F)cc34)n2)c2cccnc21" ?
Return: N

Enquiry: Record lookup: outcome of this test for CCC(=O)C(CC(C)N1CCCCCC1)(c1ccccc1)c1ccccc1 (stereo not drawn) ?
Return: N

Enquiry: Status in this test for "COC(=O)C1=CO[C@@H](C)[C@@H]2CN3CCc4c([nH]c5cc(OC)ccc45)[C@@H]3C[C@H]12" ?
Return: N

Enquiry: Per the records of this test, what outcome belongs to Clc1ccc(COC(Cn2ccnc2)c2ccc(Cl)cc2Cl)c(Cl)c1 (stereo not drawn) ?
Return: N

Enquiry: So what was the verdict on "[N-]=[N+]=CC(=O)CCC(=O)C=[N+]=[N-]" in this test?
Return: N

Enquiry: Please let me know the test result on file for "Cc1cc2c(cc1-c1ccnc(/C=C/C(=O)O)c1)C(C)(C)CCC2(C)C" .
Return: N

Enquiry: How was "CCCCCCCCCCCCCCCC[N+](C)(C)Cc1ccccc1" classified in this test?
Return: N

Enquiry: Per the assay record, what outcome was assigned to "O=Cc1cn(Cc2ccccc2)c2ccccc12" ?
Return: N

Enquiry: Record lookup: outcome of this test for "CC1(C)C=Cc2c(ccc3c2[N+]([O-])=C2C3=C[C@@]34NC(=O)[C@]5(CCCN5C3=O)C[C@@H]4C2(C)C)O1" ?
Return: N

Enquiry: # outcome recorded in this test, key = "N#CC(C#N)=Cc1cccc(F)c1"
Return: N

Enquiry: // return assay outcome for "O=S1(=O)OCCO1"
Return: N

Enquiry: I would be grateful if you could indicate the recorded call for "CC(=O)c1cccc(S(=O)(=O)F)c1" .
Return: N

Enquiry: # fetch the recorded call for "Oc1cc(Cl)ccc1Oc1ccc(Cl)cc1Cl" here
Return: N
